test system: Hela (human cervical cancer) cells; assay: MTT cell growth inhibition, solid tumor cells; type: cell-based; details: Homo sapiens; Hela, 72 h, MTT; read-out: IC50
MEASUREMENT TYPE: IC50 (µg/mL)

COMPOUND: COc1ccc2cc1Oc1ccc(cc1)C[C@H]1c3cc(c(OC)cc3CCN1C)Oc1c(OS(=O)(=O)c3ccc(C)cc3)c(OC)cc3c1[C@H](C2)N(C)CC3
IC50 / µg/mL: 1.44

P: COc1ccc2cc1Oc1ccc(cc1)C[C@H]1c3cc(c(OC)cc3CCN1C)Oc1c(OCc3ccc(C(F)(F)F)cc3)c(OC)cc3c1[C@H](C2)N(C)CC3
Q: COc1ccc2cc1Oc1ccc(cc1)C[C@H]1c3cc(c(OC)cc3CCN1C)Oc1c(OCC(O)CN3CCN(C#N)CC3)c(OC)cc3c1[C@H](C2)N(C)CC3 (stereo partly drawn)
In: Compare P and Q and name the one whose reported IC50 is smaller. Reply with the label of the item you choose.
Out: Q

* * *

test system: RKO (human colon adenocarcinoma) cells; test: MTT cell growth inhibition, solid tumor cells; assay type: cell-based; settings: Homo sapiens; RKO, 72 h, MTT; read-out: IC90
MEASUREMENT TYPE: IC90 (µg/mL)

COMPOUND: COc1ccc2cc1Oc1ccc(cc1)C[C@H]1c3cc(c(OC)cc3CCN1C)Oc1c(OCC(O)CN3CCN(C#N)CC3)c(OC)cc3c1[C@H](C2)N(C)CC3 (stereo partly drawn)
IC90 [µg/mL]: 2.33

I: COc1cc(OC)cc(C(=O)Oc2c(OC)cc3c4c2Oc2cc5c(cc2OC)CCN(C)[C@H]5Cc2ccc(cc2)Oc2cc(ccc2OC)C[C@@H]4N(C)CC3)c1
II: COc1ccc2cc1Oc1ccc(cc1)C[C@H]1c3cc(c(OC)cc3CCN1C)Oc1c(OS(=O)(=O)c3ccccc3)c(OC)cc3c1[C@H](C2)N(C)CC3
In: // pick min by IC90: I , II Returns: label corresponding to the selected item.
Out: II
(II: 1.76 µg/mL, I: 3.24 µg/mL)

* * *

tested on: Hela (human cervical cancer) cells; experiment: MTT cell growth inhibition, solid tumor cells; format: cell-based; conditions: Homo sapiens; Hela, 72 h, MTT; read-out: IC50
MEASUREMENT TYPE: IC50 (µg/mL)

COMPOUND: C=CCOc1c(OC)cc2c3c1Oc1cc4c(cc1OC)CCN(C)[C@H]4Cc1ccc(cc1)Oc1cc(ccc1OC)C[C@@H]3N(C)CC2 [BS-FC-213]
UNIT OF MEASURE: µg/mL
IC50: 1.68

1: COc1ccc2cc1Oc1ccc(cc1)C[C@H]1c3cc(c(OC)cc3CCN1C)Oc1c(OC(=O)c3c(F)cccc3Cl)c(OC)cc3c1[C@H](C2)N(C)CC3 [BS-FC-315]
2: COc1cc(OC)cc(C(=O)Oc2c(OC)cc3c4c2Oc2cc5c(cc2OC)CCN(C)[C@H]5Cc2ccc(cc2)Oc2cc(ccc2OC)C[C@@H]4N(C)CC3)c1 [BS-FC-311]
In: In the pair 1 and 2 , the larger recorded IC50 belongs to which? Reply briefly: the label of your chosen item.
Out: 1
(1: 1.5 µg/mL, 2: 0.5 µg/mL)

* * *

system: PC-3 (prostate cancer) cells; assay: MTT cell growth inhibition, solid tumor cells; type: cell-based, human; settings: Homo sapiens; PC-3, 72 h, MTT; read-out: IC50
MEASUREMENT TYPE: IC50 (µg/mL)

Some solved cases for reference:
COMPOUND: C=CCOc1c(OC)cc2c3c1Oc1cc4c(cc1OC)CCN(C)[C@H]4Cc1ccc(cc1)Oc1cc(ccc1OC)C[C@@H]3N(C)CC2 [BS-FC-213]
UNIT OF MEASURE: µg/mL
RECORDED MEASUREMENT: 3.24
//
COMPOUND: COc1ccc2cc1Oc1ccc(cc1)C[C@H]1c3cc(c(OC)cc3CCN1C)Oc1c(OCC(O)CNCC3CC3)c(OC)cc3c1[C@H](C2)N(C)CC3 (stereo partly drawn) [BS-FC-405]
UNIT OF MEASURE: µg/mL
RECORDED MEASUREMENT: 2.53
//
COMPOUND: COc1ccc2cc1Oc1ccc(cc1)C[C@H]1c3cc(c(OC)cc3CCN1C)Oc1c(OC3CCCC3)c(OC)cc3c1[C@H](C2)N(C)CC3 [BS-FC-220]
UNIT OF MEASURE: µg/mL
RECORDED MEASUREMENT: 4.55

P: COc1ccc2cc1Oc1ccc(cc1)C[C@H]1c3cc(c(OC)cc3CCN1C)Oc1c(OC(=O)C3CC3)c(OC)cc3c1[C@H](C2)N(C)CC3 [BS-FC-304]
Q: COc1ccc2cc1Oc1ccc(cc1)C[C@H]1c3cc(c(OC)cc3CCN1C)Oc1c(OCC(O)CN3CCCCC3)c(OC)cc3c1[C@H](C2)N(C)CC3 (stereo partly drawn) [BS-FC-403]
R: COc1ccc2cc1Oc1ccc(cc1)C[C@H]1c3cc(c(OC)cc3CCN1C)Oc1c(OCC(O)CN3CCN(C#N)CC3)c(OC)cc3c1[C@H](C2)N(C)CC3 (stereo partly drawn) [BS-FC-421]
In: Please rank these compounds by IC50 in descending order. Please, when replying, give the labels in the order that was requested.
Out: P, R, Q
(P: 4.02 µg/mL, R: 2.72 µg/mL, Q: 1.49 µg/mL)

* * *

system: Kasumi-1 (acute myeloid leukemia M2 type) cells; assay: MTT cell growth inhibition, leukemia cells; type: cell-based, human; details: Homo sapiens; Kasumi-1, 72 h, MTT; read-out: IC90
MEASUREMENT TYPE: IC90 (µg/mL)

Consider the following illustrative entries.
COMPOUND: COc1ccc2cc1Oc1ccc(cc1)C[C@H]1c3cc(c(OC)cc3CCN1C)Oc1c(OS(=O)(=O)c3ccccc3)c(OC)cc3c1[C@H](C2)N(C)CC3
SYSTEM TESTED: Kasumi-1 (acute myeloid leukemia M2 type) cells
MEASUREMENT TYPE: IC90
RECORDED MEASUREMENT: 3.68

COMPOUND: COc1ccc2cc1Oc1ccc(cc1)C[C@H]1c3cc(c(OC)cc3CCN1C)Oc1c(OC3CCCC3)c(OC)cc3c1[C@H](C2)N(C)CC3
SYSTEM TESTED: Kasumi-1 (acute myeloid leukemia M2 type) cells
MEASUREMENT TYPE: IC90
RECORDED MEASUREMENT: 3.72

COMPOUND: COc1ccc2cc1Oc1ccc(cc1)C[C@H]1c3cc(c(OC)cc3CCN1C)Oc1c(OCc3ccc(C(F)(F)F)cc3)c(OC)cc3c1[C@H](C2)N(C)CC3
SYSTEM TESTED: Kasumi-1 (acute myeloid leukemia M2 type) cells
MEASUREMENT TYPE: IC90
RECORDED MEASUREMENT: 7.22

a: COc1ccc2cc1Oc1ccc(cc1)C[C@H]1c3cc(c(OC)cc3CCN1C)Oc1c(OCc3cccc(F)c3F)c(OC)cc3c1[C@H](C2)N(C)CC3
b: COc1ccc2cc1Oc1ccc(cc1)C[C@H]1c3cc(c(OC)cc3CCN1C)Oc1c(OCC(O)CN3CCCC(C)C3)c(OC)cc3c1[C@H](C2)N(C)CC3 (stereo partly drawn)
In: Given a and b , report the one with the higher recorded IC90. // return label of chosen record
Out: a
(a: 3.16 µg/mL, b: 1.86 µg/mL)

* * *

Tested on: NB4 (acute promyelocytic leukemia) cells
Experiment: MTT cell growth inhibition, leukemia cells
Type: cell-based
Details: Homo sapiens; NB4, 72 h, MTT; read-out: IC90
Text: Leukemia cell lines: leukemia cell lines: K562adr (drug-resistant, chronic myeloid leukemia, CML), NB4 (acute promyelocytic leukemia, AML), Kasumi-1 (acute myeloid leukemia M2 type, AML-M2), Jurkat (acute lymphoblastic leukemia, ALL), all of which were donated by Cancer Research Institute of Zhejiang University, China; and H9 (acute lymphoblastic leukemia, ALL), which was purchased from China Center for Type Culture Collection. […]
MEASUREMENT TYPE: IC90 (µg/mL)

Examples with answers:
COMPOUND: COc1cc(OC)cc(C(=O)Oc2c(OC)cc3c4c2Oc2cc5c(cc2OC)CCN(C)[C@H]5Cc2ccc(cc2)Oc2cc(ccc2OC)C[C@@H]4N(C)CC3)c1
UNIT OF MEASURE: µg/mL
IC90: 0.96
--
COMPOUND: COc1ccc2cc1Oc1ccc(cc1)C[C@H]1c3cc(c(OC)cc3CCN1C)Oc1c(OCc3ccc(C(F)(F)F)cc3)c(OC)cc3c1[C@H](C2)N(C)CC3
UNIT OF MEASURE: µg/mL
IC90: 2.93
--
COMPOUND: COc1ccc2cc1Oc1ccc(cc1)C[C@H]1c3cc(c(OC)cc3CCN1C)Oc1c(OCC(O)CN3CCSCC3)c(OC)cc3c1[C@H](C2)N(C)CC3 (stereo partly drawn)
UNIT OF MEASURE: µg/mL
IC90: 2.86

A: COc1ccc2cc1Oc1ccc(cc1)C[C@H]1c3cc(c(OC)cc3CCN1C)Oc1c(OC3CCCC3)c(OC)cc3c1[C@H](C2)N(C)CC3
B: COc1ccc2cc1Oc1ccc(cc1)C[C@H]1c3cc(c(OC)cc3CCN1C)Oc1c(OC(=O)c3c(F)cccc3Cl)c(OC)cc3c1[C@H](C2)N(C)CC3
C: COc1ccc2cc1Oc1ccc(cc1)C[C@H]1c3cc(c(OC)cc3CCN1C)Oc1c(OS(=O)(=O)c3ccccc3)c(OC)cc3c1[C@H](C2)N(C)CC3
In: Write the entries in order, lowest recorded IC90 first. Return value: ordered labels per request.
Out: C, B, A
(C: 0.92 µg/mL, B: 1.32 µg/mL, A: 3.16 µg/mL)
